# System: Target Negative Cell
# measurementProtocol: Tumor cell line assay Example 2b, target negative cells
# Format: cell-based
# experimentalSetup: hemiasterlin derivatives, 120 hrs
The following compounds are listed with their measured Target Negative Cell Span (%) values.
Provide only the numeric value, understood in %.

Per the record, CN[C@H](C(=O)N[C@H](C(=O)N(C)[C@H](/C=C(\C)C(=O)O)C(C)C)C(C)(C)C)C(C)(C)c1cccc(NC(=O)OCc2ccc(NC(=O)[C@H](C)NC(=O)[C@@H](NC(=O)CCCCC(=O)N3Cc4ccccc4C#Cc4ccccc43)C(C)C)cc2)c1 [Compound 110a] has Target Negative Cell Span (%) of 90

Per the record, CNC(C(=O)N[C@H](C(=O)N(C)[C@H](/C=C(\C)C(=O)O)C(C)C)C(C)(C)C)C(C)(C)c1cccc(NC(=O)[C@H](C)NC(=O)[C@@H](NC(=O)CCCCC(=O)N2Cc3ccccc3C#Cc3ccccc32)C(C)C)c1 (stereo partly shown) [Compound 111a] has Target Negative Cell Span (%) of 91

Per the record, CN[C@H](C(=O)NC(C(=O)N(C)[C@H](/C=C(\C)C(=O)O)C(C)C)C(C)(C)C)C(C)(C)c1cccc(NC(=O)OCc2cc(C)c(OC3OC(C(=O)O)C(O)C(O)C3O)c(NC(=O)CCNC(=O)CCCCC(=O)N3Cc4ccccc4C#Cc4ccccc43)c2)c1 (stereo partly shown) [Compound 109a] has Target Negative Cell Span (%) of 95

Per the record, CN[C@H](C(=O)N[C@H](C(=O)N(C)[C@H](/C=C(\C)C(=O)O)C(C)C)C(C)(C)C)C(C)(C)c1cccc(NC(=O)OCc2ccc(NC(=O)[C@H](CCCNC(N)=O)NC(=O)[C@@H](NC(=O)CCC(=O)N3Cc4ccccc4C#Cc4ccccc43)C(C)C)cc2)c1 (single isomer, unassigned) [Compound 101a] has Target Negative Cell Span (%) of 110
